# SYSTEM UNDER TEST: beta-catenin/TCF4 engagement (Homo sapiens)
# Construct: expressed in transfected cells; host or cells: HEK293
# METHOD NOTES: Nano-BRET target engagement assay (B-cat-Halo & TCF4-Luc in HEK293 cells)
# Type: cell-based
# CONDITION: absolute IC50; read-out: NanoBRET Abs IC50
Measured IC50, listed per entry for reference.
# unit: µM | format: bare number

Which IC50 reading was recorded for the compound CC(=O)N1CCC[C@]12CC=CCCCC1(CCCC=CCCCOC(=O)N3CC[C@@](C(=O)N[C@@H](Cc4ccsc4)C(=O)N[C@@H](Cc4ccc5c(c4)CCC5)C(=O)N[C@@H](C)C(N)=O)(C3)NC(=O)[C@H](C(C)C)NC(=O)[C@H](Cc3ccccc3)NC(=O)[C@H](C)NC(=O)[C@H](CCC(N)=O)NC(=O)[C@H](Cc3cccc(C(=O)O)c3)NC(=O)[C@H](CC(=O)O)NC1=O)NC(=O)[C@H](CC(C)(C)C)NC(=O)[C@H](CC(=O)O)NC2=O (stereo partly drawn) ?
5.1

Which IC50 reading was recorded for the compound CC(=O)N1CCC[C@]12CC=CCCCC1(CCCC=CCCCOC(=O)N3CC[C@@](C(=O)N[C@@H](Cc4ccccc4)C(=O)N[C@@H](Cc4csc5ccccc45)C(=O)N[C@@H](CCC(N)=O)C(N)=O)(C3)NC(=O)[C@H](CC(C)C)NC(=O)[C@H](Cc3ccccc3)NC(=O)[C@H](C)NC(=O)[C@H](C)NC(=O)[C@H](CN(CC(=O)O)CC(F)(F)F)NC(=O)[C@H](CC(=O)O)NC1=O)NC(=O)[C@H](CC(C)(C)C)NC(=O)[C@H](CC(=O)O)NC2=O (stereo partly drawn) ?
4.8

* * *

# SYSTEM UNDER TEST: beta-catenin/TCF4 engagement (Homo sapiens)
# Construct: expressed in transfected cells; host or cells: HEK293
# Sequence (P35222 1-781): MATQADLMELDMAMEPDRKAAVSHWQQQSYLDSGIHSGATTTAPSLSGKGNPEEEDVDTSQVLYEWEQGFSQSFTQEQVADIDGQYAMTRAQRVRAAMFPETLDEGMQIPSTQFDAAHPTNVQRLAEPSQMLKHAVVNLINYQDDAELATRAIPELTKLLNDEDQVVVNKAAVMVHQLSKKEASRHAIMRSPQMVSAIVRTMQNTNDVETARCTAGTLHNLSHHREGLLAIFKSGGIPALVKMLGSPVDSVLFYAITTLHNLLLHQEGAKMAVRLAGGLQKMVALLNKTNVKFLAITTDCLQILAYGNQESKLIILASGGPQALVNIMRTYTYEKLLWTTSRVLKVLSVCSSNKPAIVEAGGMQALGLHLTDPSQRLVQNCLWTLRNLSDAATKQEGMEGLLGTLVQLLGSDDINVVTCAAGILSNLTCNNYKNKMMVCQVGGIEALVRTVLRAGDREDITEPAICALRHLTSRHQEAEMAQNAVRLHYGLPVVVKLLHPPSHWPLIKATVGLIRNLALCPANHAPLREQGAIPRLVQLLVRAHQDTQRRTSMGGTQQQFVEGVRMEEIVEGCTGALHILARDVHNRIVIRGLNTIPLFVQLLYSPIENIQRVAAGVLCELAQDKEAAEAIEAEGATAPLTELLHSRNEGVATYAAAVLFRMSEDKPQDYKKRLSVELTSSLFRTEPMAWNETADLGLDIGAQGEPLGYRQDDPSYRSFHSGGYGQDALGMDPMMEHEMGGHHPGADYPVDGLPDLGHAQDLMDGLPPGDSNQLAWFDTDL
# METHOD NOTES: Nano-BRET target engagement assay (B-cat-Halo & TCF4-Luc in HEK293 cells)
# Assay type: cell-based
# CONDITION: absolute IC50; read-out: NanoBRET Abs IC50
MEASUREMENT NAME: pIC50
pIC50 is defined as minus the log10 of a concentration measured in mol/L.

CC(=O)N1CCC[C@]12CC=CCCCC1(CCCC=CCCCOC(=O)N3CC[C@@](C(=O)N[C@@H](Cc4ccccc4Cl)C(=O)N[C@@H](Cc4csc5ccccc45)C(=O)N[C@@H](CO)C(N)=O)(C3)NC(=O)[C@H](CC(C)C)NC(=O)[C@H](Cc3ccccc3)NC(=O)[C@H](C)NC(=O)[C@H](C)NC(=O)[C@H]([C@@H](C)O)NC(=O)[C@H](CC(=O)O)NC1=O)NC(=O)[C@H](CC(C)(C)C)NC(=O)[C@H](CC(=O)O)NC2=O (some centres unmarked) [I-1172] : 4.71

Which pIC50 reading was recorded for the compound CC(=O)N1CCC[C@]12CC=CCCCC1(CCCC=CCCCOC(=O)N3CC[C@@](C(=O)N[C@@H](Cc4ccsc4)C(=O)N[C@@H](Cc4csc5ccccc45)C(=O)N[C@@H](CCC(N)=O)C(N)=O)(C3)NC(=O)[C@H](CC(C)C)NC(=O)[C@H](Cc3ccccc3)NC(=O)[C@H](C)NC(=O)[C@H](C)NC(=O)[C@H](CCC(N)=O)NC(=O)[C@H](CC(=O)O)NC1=O)NC(=O)[C@H](CC(C)(C)C)NC(=O)[C@H](CC(=O)O)NC2=O (some centres unmarked) [I-1440] ?
4.68

Which pIC50 reading was recorded for the compound CC(=O)N1CCC[C@]12CC=CCCCC1(CCCC=CCCCCCC[C@@](C)(C(=O)N[C@@H](Cc3ccccc3)C(=O)N[C@@H](Cc3csc4ccccc34)C(=O)N[C@@H](CCC(N)=O)C(N)=O)NC(=O)[C@H](CCC(N)=O)NC(=O)[C@H](Cc3ccccc3)NC(=O)[C@H](C)NC(=O)[C@H](C)NC(=O)[C@H](CCC(=O)O)NC(=O)[C@H](CC(=O)O)NC1=O)NC(=O)[C@H](CC(C)(C)C)NC(=O)[C@H](CC(=O)O)NC2=O (some centres unmarked) [I-544] ?
5.34

Which pIC50 reading was recorded for the compound CC[C@H](C)[C@@H]1NC(=O)[C@H](CN(CC(=O)O)CC(F)(F)F)NC(=O)[C@H](CC(=O)O)NC(=O)C2(CCCC=CCCCOC(=O)N3CC[C@@](C(=O)N[C@@H](Cc4ccccc4Cl)C(=O)N[C@@H](Cc4csc5ccccc45)C(=O)N[C@@H](CCC(N)=O)C(N)=O)(C3)NC(=O)[C@H](CC(N)=O)NC(=O)[C@H](Cc3ccccc3)NC(=O)[C@H](C)NC1=O)CCCC=CC[C@]1(CCCN1C(C)=O)C(=O)N[C@@H](CC(=O)O)C(=O)N[C@@H](CC(C)(C)C)C(=O)N2 (some centres unmarked) [I-1010] ?
4.88

Reference for the values: patent US20240116985A1
